Test: Volume of distribution at steady state in dog at 0.2 mg/kg, iv and 5 mg/kg, po
Format: ADME, organism-based, Canis lupus familiaris
Conditions: in vivo, read-out: Vdss
Observed Property: Vd (L/kg)

{"columns": ["Input Smiles", "Observed Property", "U", "Readout Value"],
 "data": [
  ["CC(C)(C)CN1CCC2(CC1)CN(c1ccccc1NC(=O)Nc1nc3ccc(Cl)nc3s1)c1c(O)ccc(Cl)c12", "Vd", "L/kg", 2.5]
]}

====

Tested on: Blood
Experiment: Drug uptake in rat blood at 3 mg/kg, po
Type: ADME, organism-based
Set-up: dose 3 mg/kg, route oral
Settings: in vivo, read-out: Drug uptake
Observed Property: concentration (nM)

{"columns": ["Input Smiles", "Assay System", "Observed Property", "U", "Readout Value"],
 "data": [
  ["CC(C)(C)CN1CCC2(CC1)CN(c1ccccc1NC(=O)Nc1nc3ccc(Cl)nc3s1)c1c(O)ccc(Cl)c12", "Blood", "concentration", "nM", 81]
]}
